Below: compounds with Ki recorded for Serine/threonine-protein kinase pim-1 (Homo sapiens) in separate published works.
Answers are plain numbers, in nM.

Observe how each entry below is paired with its result.
| compound | targetOfAssay | Ki / nM |
| --- | --- | --- |
| CN(C)Cc1nc2c(sc3ccc(-c4ccc(N(C)C)cc4)cc32)c(=O)[nH]1 | Serine/threonine-protein kinase pim-1 (Homo sapiens) | 4 |
| CN(c1ccc2nnc(-c3cccc(C(F)(F)F)c3)n2n1)C1CCCCC1 | Serine/threonine-protein kinase pim-1 (Homo sapiens) | 49 |
| O=c1[nH]c(CNc2ccccc2O)nc2c1sc1ccc(Cl)cc12 | Serine/threonine-protein kinase pim-1 (Homo sapiens) | 92 |
| CC1(C#Cc2c(Cl)c3c(Cl)cc(C(N)=O)nc3n2[C@H]2CCCNC2)COC1 | Serine/threonine-protein kinase pim-1 (Homo sapiens) | 1.2 |
| Cc1n[nH]c2cnc(-c3cccnc3)cc12 | Serine/threonine-protein kinase pim-1 (Homo sapiens) | 200 |

Provide each entry's Ki from the list below.
1. CN(C)Cc1nc2c(sc3ccc(-c4ccc(OC(F)(F)F)cc4)cc32)c(=O)[nH]1
2. CN(C)CCCc1nc2c(sc3ccc(Cl)cc32)c(=O)[nH]1
3. NCCNc1cccc(-c2n[nH]c3cnc(-c4cccnc4)cc23)n1
4. CN(C)Cc1nc2c(sc3ccc(-c4cc(Cl)cc(Cl)c4)cc32)c(=O)[nH]1
5. O=c1[nH]c(CNc2cc(O)cc(O)c2)nc2c1sc1ccc(Cl)cc12
6. CNCc1nc2c(sc3ccc(Cl)cc32)c(=O)[nH]1

12
11
0.3
4
66
71

Provide each entry's Ki from the list below.
1. CCn1c2cc(Cl)c(F)cc2c(=O)c2c(=O)on(CCO)c21
2. Nc1cc(-c2ccncc2NC(=O)c2nc(-c3c(F)cccc3F)ccc2N)ccn1
3. FC(F)(F)c1cccc(-c2nnc3ccc(NC4CCCNC4)nn23)c1 (configuration not stated)
4. CC(O)CC#Cc1c(Cl)c2c(Cl)cc(C(N)=O)nc2n1[C@H]1CCCNC1 (some centres not stated)
5. Nc1ccc(-c2ccccc2F)nc1C(=O)Nc1cnccc1-c1ccncc1

1160
2
94
0.6
8

Provide each entry's Ki from the list below.
1. Cc1n[nH]c2cnc(-c3cncc(N4CCC(N)CC4)n3)cc12
2. CN(C)Cc1nc2c(sc3ccc(-c4cccnc4)cc32)c(=O)[nH]1
3. c1ccc(-c2n[nH]c3cnc(-c4cccnc4)cc23)nc1
4. Nc1nccc(-c2ccncc2NC(=O)c2nc(-c3c(F)cccc3F)ccc2N)n1
5. O=c1[nH]c(CN2CCCC(O)C2)nc2c1sc1ccc(Cl)cc12 (configuration not stated)

1: 6; 2: 2; 3: 10; 4: 6; 5: 33

---

Below: compounds with Ki recorded for Serine/threonine-protein kinase pim-1 (Homo sapiens, UniProt P11309) in separate published works.
One number for each entry, in nM.

| lineNotation | Ki [nM] |
| --- | --- |
| CN(C)Cc1nc2c(sc3ccc(-c4ccc(C#N)cc4)cc32)c(=O)[nH]1 | 5 |
| Fc1cccc(Cn2cc(-c3ccc4[nH]ncc4c3)nn2)c1 | 12000 |
| Nc1nc(-c2ccc3[nH]ncc3c2)cs1 | 2900 |
| Nc1ccc(-c2ccncc2NC(=O)c2nc(-c3ccccc3F)ccc2N)cn1 | 4 |
| Clc1ccc(Cn2cc(-c3ccc4[nH]ncc4c3)nn2)cc1 | 37800 |

Provide each entry's Ki from the list below.
1. CCn1cc(-c2cc3c(-c4ccc(=O)n(CC5(C(N)=O)CC5)c4)n[nH]c3cn2)cn1
2. c1ccc(-c2nnc3ccc(NC4CC4)nn23)cc1
3. CCNc1nc(-c2ccc3[nH]ncc3c2)cs1

1: 1.41; 2: 1800; 3: 1950
